All figures here come from patent US20110196000A1.

Test system: wheat variety Ritmo
protocol-text: Plot trial: yield components
Assay type: in vivo
setup-conditions: sprays at BBCH 39 and 59
API: label(entry) gives 1.0 if the entry's Yield is strictly smaller than 8 t ha^−1; on equality or larger values it gives 0.0.

CCCN(CC)CC1COC2(CCC(C(C)(C)C)CC2)O1 (centres unmarked) ... 1.0

Now look at this entry.
**Query** Does the reported Yield of Cn1cc(C(=O)Nc2ccc(F)cc2-c2ccc(Cl)c(Cl)c2)c(C(F)F)n1 stay below 8 t ha^−1?
**Result** 0.0

---

Tested on: wheat variety Ritmo
protocol-text: Plot trial: chlorophyll content of leaves (pigment extraction method of Ziegler and Ehle)
Assay type: in vivo
setup-conditions: BBCH 75 (mature milk); leaf F-2
property: Chlorophyll content (µg/g)
Record the value in µg/g, omitting the unit from your answer.

The examples below pair each entry with its known result.
CO/N=C(/C1=NOCCO1)c1ccccc1Oc1ncnc(Oc2ccccc2Cl)c1F [Fluoxastrobin] ... 1126
O=C(Nc1ccccc1-c1ccc(Cl)cc1)c1cccnc1Cl [Boscalid] ... 826
CCCN(CC)CC1COC2(CCC(C(C)(C)C)CC2)O1 (centres unmarked) [Spiroxamine] ... 707
OC(Cc1ccccc1Cl)(Cn1nc[nH]c1=S)C1(Cl)CC1 (centres unmarked) [Prothioconazole] ... 1207

For Cn1cc(C(=O)Nc2ccc(F)cc2-c2ccc(Cl)c(Cl)c2)c(C(F)F)n1 [Bixafen] on wheat variety Ritmo, measured Chlorophyll content was 1243

---

Test system: infection-free wheat plants of the cultivar Passat
protocol-text: Glasshouse trial: temperature of ears and leaves as measure of transpiration activity
Assay type: in vivo
setup-conditions: BBCH 80; ear
property: Temperature (as a measure of the transpiration activity)

The examples below pair each entry with its known result.
OC(Cc1ccccc1Cl)(Cn1nc[nH]c1=S)C1(Cl)CC1 (stereo not shown) ... 19.5 °C
CO/N=C(/C1=NOCCO1)c1ccccc1Oc1ncnc(Oc2ccccc2Cl)c1F ... 18.9 °C
Cn1cc(C(=O)Nc2ccc(F)cc2-c2ccc(Cl)c(Cl)c2)c(C(F)F)n1 ... 18.2 °C

For CCCN(CC)CC1COC2(CCC(C(C)(C)C)CC2)O1 (stereo not shown) the compound record lists Temperature (as a measure of the transpiration activity) as 20.2 °C

---

Test system: infection-free wheat plants of the cultivar Passat
protocol-text: Glasshouse trial: yield components
Type: in vivo
setup-conditions: glasshouse, sprays at BBCH 39 and 59
property: Kernels/ear

The examples below pair each entry with its known result.
CO/N=C(/C1=NOCCO1)c1ccccc1Oc1ncnc(Oc2ccccc2Cl)c1F ... 21.9
OC(Cc1ccccc1Cl)(Cn1nc[nH]c1=S)C1(Cl)CC1 (stereo not shown) ... 22.2
Cn1cc(C(=O)Nc2ccc(F)cc2-c2ccc(Cl)c(Cl)c2)c(C(F)F)n1 ... 25.1

# next compound below
For CCCN(CC)CC1COC2(CCC(C(C)(C)C)CC2)O1 (stereo not shown) the compound record lists Kernels/ear as 23.2

---

Tested on: wheat variety Ritmo
protocol-text: Plot trial in Germany: green leaf area by visual scoring
Format: in vivo
setup-conditions: 28 days after second fungicide application; sprays at BBCH 39 and 59
Procedure: In Germany a plot trial was set up with the wheat variety Ritmo in order to investigate the effect of bixafen on the physiology, morphology and abiotic stress tolerance of wheat plants under realistic agricultural conditions. The products under test were applied to the plants, in the form of sequential spray sequences (BBCH 39 and 59). The spray volume was 400 l of water per hectare. In each trial component, 5 repetitions were carried out. [table] […]
API: label(entry) gives true if the entry's green leaf area of the third-from-top leaf (F-2) is strictly smaller than 80 % leaf area; on equality or larger values it gives false.

Please review the entries below; each comes with its answer.
Cn1cc(C(=O)Nc2ccc(F)cc2-c2ccc(Cl)c(Cl)c2)c(C(F)F)n1 [Bixafen] ... false
CO/N=C(/C1=NOCCO1)c1ccccc1Oc1ncnc(Oc2ccccc2Cl)c1F [Fluoxastrobin] ... false
CCCN(CC)CC1COC2(CCC(C(C)(C)C)CC2)O1 (centres unmarked) [Spiroxamine] ... true
O=C(Nc1ccccc1-c1ccc(Cl)cc1)c1cccnc1Cl [Boscalid] ... true

Now look at this entry.
**Query** Does the reported green leaf area of the third-from-top leaf (F-2) of OC(Cc1ccccc1Cl)(Cn1nc[nH]c1=S)C1(Cl)CC1 (centres unmarked) [Prothioconazole] stay below 80 % leaf area?
**Result** false

---

System: infection-free wheat plants of the cultivar Passat
protocol-text: Glasshouse trial: green leaf area by visual scoring
Assay type: in vivo
setup-conditions: 89 days after second fungicide application (so in the source); glasshouse
green leaf area of the third-from-top leaf (F-2): recorded values
Record the value in % leaf area, omitting the unit from your answer.

CCCN(CC)CC1COC2(CCC(C(C)(C)C)CC2)O1 (stereo not shown) ... 45
OC(Cc1ccccc1Cl)(Cn1nc[nH]c1=S)C1(Cl)CC1 (stereo not shown) ... 53
CO/N=C(/C1=NOCCO1)c1ccccc1Oc1ncnc(Oc2ccccc2Cl)c1F ... 54

# next molecule below
For Cn1cc(C(=O)Nc2ccc(F)cc2-c2ccc(Cl)c(Cl)c2)c(C(F)F)n1 the molecule record lists green leaf area of the third-from-top leaf (F-2) as 52

---

Test system: infection-free wheat plants of the cultivar Passat
protocol-text: Glasshouse trial: temperature of ears and leaves as measure of transpiration activity
Format: in vivo
setup-conditions: BBCH 90; lear (so in the source)
property: Temperature (as a measure of the transpiration activity) (°C)
Record the value in °C, omitting the unit from your answer.

The examples below pair each entry with its known result.
Cn1cc(C(=O)Nc2ccc(F)cc2-c2ccc(Cl)c(Cl)c2)c(C(F)F)n1 ... 22.3
OC(Cc1ccccc1Cl)(Cn1nc[nH]c1=S)C1(Cl)CC1 (stereo not shown) ... 23.1
CCCN(CC)CC1COC2(CCC(C(C)(C)C)CC2)O1 (stereo not shown) ... 23.2

For CO/N=C(/C1=NOCCO1)c1ccccc1Oc1ncnc(Oc2ccccc2Cl)c1F the molecule record lists Temperature (as a measure of the transpiration activity) as 22.7

---

System: infection-free wheat plants of the cultivar Passat
protocol-text: Glasshouse trial: green leaf area by visual scoring
Format: in vivo
setup-conditions: 96 days after second fungicide application (so in the source); glasshouse
property: green leaf area of the third-from-top leaf (F-2) (% leaf area)
Record the value in % leaf area, omitting the unit from your answer.

The examples below pair each entry with its known result.
Cn1cc(C(=O)Nc2ccc(F)cc2-c2ccc(Cl)c(Cl)c2)c(C(F)F)n1 ... 29
OC(Cc1ccccc1Cl)(Cn1nc[nH]c1=S)C1(Cl)CC1 (stereo not shown) ... 30
CCCN(CC)CC1COC2(CCC(C(C)(C)C)CC2)O1 (stereo not shown) ... 19

# next compound below
For CO/N=C(/C1=NOCCO1)c1ccccc1Oc1ncnc(Oc2ccccc2Cl)c1F the compound record lists green leaf area of the third-from-top leaf (F-2) as 29

---

System: wheat variety Ritmo
protocol-text: Plot trial in Germany: green leaf area by visual scoring
Format: in vivo
setup-conditions: 14 days after second fungicide application; sprays at BBCH 39 and 59
green leaf area of the second-from-top leaf (F-1): recorded values
Record the value in % leaf area, omitting the unit from your answer.

The examples below pair each entry with its known result.
Cn1cc(C(=O)Nc2ccc(F)cc2-c2ccc(Cl)c(Cl)c2)c(C(F)F)n1 ... 98.3
CCCN(CC)CC1COC2(CCC(C(C)(C)C)CC2)O1 (stereo not drawn) ... 95.8

For OC(Cc1ccccc1Cl)(Cn1nc[nH]c1=S)C1(Cl)CC1 (stereo not drawn) on wheat variety Ritmo, measured green leaf area of the second-from-top leaf (F-1) was 97.8

---

Tested on: wheat variety Ritmo
protocol-text: Plot trial: yield components
Type: in vivo
setup-conditions: sprays at BBCH 39 and 59
property: Yield (t ha^−1)
Record the value in t ha^−1, omitting the unit from your answer.

The examples below pair each entry with its known result.
OC(Cc1ccccc1Cl)(Cn1nc[nH]c1=S)C1(Cl)CC1 (stereo not drawn) ... 8.1
CO/N=C(/C1=NOCCO1)c1ccccc1Oc1ncnc(Oc2ccccc2Cl)c1F ... 8.2

# next compound below
For O=C(Nc1ccccc1-c1ccc(Cl)cc1)c1cccnc1Cl the compound record lists Yield as 7.8
